# Species on record: Rattus norvegicus
# MEASUREMENT PROTOCOL: In vitro inhibitory activity against IL-1 generation by using rat exudated macrophages
# Format: functional
Give measured IC50 for each item. Keep answers brief.
Numbers only; they are read as µM.

I am curious: what IC50 value has been reported for CC/C(=C\c1cc(OC)c(O)c2c(CC)cccc12)C(=O)O ? 1.4

I am curious: what IC50 value has been reported for CCc1cccc2c(/C=C/C(=O)O)cc(Cl)c(O)c12 ? 6

###

Give measured IC50 for each item. Keep answers brief.
# Species: Rattus norvegicus
# MEASUREMENT PROTOCOL: In vitro inhibitory activity against IL-1 generation by using rat exudated macrophages
# Format: functional
Numbers only; they are read as nM.

I am curious: what IC50 value has been reported for CCc1cccc2c(/C=C(/Cc3ccccc3)C(=O)O)cc(OC)c(O)c12 ? 2100

I am curious: what IC50 value has been reported for COCCCc1cccc2c(/C=C/C(=O)O)cc(OC)c(O)c12 ? 6300

I am curious: what IC50 value has been reported for COc1cc(/C=C/C(=O)O)c2cccc(C(C)C)c2c1O ? 1000

I am curious: what IC50 value has been reported for CCc1cccc2c(/C=C/C(=O)O)cc(OCCOC)c(O)c12 ? 3500

I am curious: what IC50 value has been reported for CCc1cccc2c(O)c(OC)cc(/C=C/C(=O)O)c12 ? 5500

I am curious: what IC50 value has been reported for CCc1cccc2c(/C=C(\Cc3ccccc3)C(=O)O)cc(OC)c(O)c12 ? 2300

I am curious: what IC50 value has been reported for CCc1cccc2c(/C=C(/C(=O)O)c3ccccc3)cc(OC)c(O)c12 ? 2500

I am curious: what IC50 value has been reported for COc1cc(/C=C(/C)C(=O)O)c2cccc(C(C)C)c2c1O ? 1400

I am curious: what IC50 value has been reported for COc1cc(/C=C/C(=O)O)c2ccccc2c1O ? 1400

I am curious: what IC50 value has been reported for CCc1cccc2c(/C=C(\Cc3cccs3)C(=O)O)cc(OC)c(O)c12 ? 6500

I am curious: what IC50 value has been reported for CCc1ccc2c(/C=C/C(=O)O)cc(OC)c(O)c2c1 ? 4100

I am curious: what IC50 value has been reported for CCOc1cc(/C=C/C(=O)O)c2cccc(CC)c2c1O ? 1400

I am curious: what IC50 value has been reported for CCc1ccc2c(O)c(OC)cc(/C=C/C(=O)O)c2c1 ? 4000

I am curious: what IC50 value has been reported for CCCCCOc1cc(/C=C/C(=O)O)c2cccc(CC)c2c1O ? 2500

I am curious: what IC50 value has been reported for CCc1cccc2c(/C=C/C(=O)O)cc(OC)c(O)c12 ? 1500

I am curious: what IC50 value has been reported for COc1cc(/C=C(\C)C(=O)O)c2cccc(C(C)C)c2c1O ? 1000

I am curious: what IC50 value has been reported for CCc1cccc2c(/C=C/C(=O)O)cc(OCc3ccccc3)c(O)c12 ? 1900

I am curious: what IC50 value has been reported for CCCc1cccc2c(/C=C(/Cc3ccccc3)C(=O)O)cc(OC)c(O)c12 ? 1600

I am curious: what IC50 value has been reported for CC/C(=C/c1cc(OC)c(O)c2c(CC)cccc12)C(=O)O ? 2100

All values here come from ChEMBL document CHEMBL1126114.
